Reference for the values: the array DNA melting data of Ke et al. (doi:10.1101/2024.01.08.574731)

- Assay Name: folding enthalpy; higher = less favourable; fluorescence melt of hairpins on a sequencing array, two-state fit
- Condition Context: sodium 0.088 M
Rule: folding enthalpy of -20 kcal/mol or more gives YES; anything lower gives NO.

Evaluate GTAGGCGGAAACGTCTGC (.((.((....)).)).) : folding enthalpy at minimum -20 kcal/mol?
NO

* * *

- Assay Name: melting temperature; fluorescence melt of hairpins on a sequencing array, two-state fit, raised by 9.35 °C to match UV melts
- Condition Context: sodium 0.088 M
Measure: Tm (°C)
# number only, unit °C dropped from output

Use the examples below as a reference point.
Residue Sequence | Tm, °C
GGTGATCGAAAGATACC (((.(((....)))))) | 37.5
GAGTCTGGAAACAGACCC (.(((((....))))).) | 38
GGGGCAGGAAACTGCCTC (.(((((....))))).) | 59.6
GATAGCCGAAAGGCAATC (((.(((....))).))) | 46

Proceeding to the next sequence to report its Tm.
Give a short answer stating reported Tm for GGTAGCCGAAAGGCACC (((.(((....)))))) .
57.5

* * *

- Assay Name: folding enthalpy; higher = less favourable; fluorescence melt of hairpins on a sequencing array, two-state fit
- Condition Context: sodium 0.088 M
Measure: folding enthalpy (kcal/mol)
# number only, unit kcal/mol dropped from output

Use the examples below as a reference point.
Residue Sequence | Scale Unit | folding enthalpy
GATCGGTTGCCCGATC ((((((....)))))) | kcal/mol | -32.5
GCGTTTACACGC ((((....)))) | kcal/mol | -23.2
CGGTAACGGAAACGTCCG (((..(((....)))))) | kcal/mol | -24.6

Give a short answer stating reported folding enthalpy for GGGGACGAAAGTCAGCCC ((((((....)))..))) .
-15.4

Give a short answer stating reported folding enthalpy for GATCTCGTGCGAGATC ((((((....)))))) .
-54.9

Give a short answer stating reported folding enthalpy for GGGAATGGAAACGTTCCC (((((.(....).))))) .
-38

Give a short answer stating reported folding enthalpy for GAAGTGCGAAAGCATTTC (((.(((....))).))) .
-23.5

* * *

- Assay Name: melting temperature; fluorescence melt of hairpins on a sequencing array, two-state fit, raised by 9.35 °C to match UV melts
- Condition Context: sodium 0.088 M
Rule: Tm of 50 °C or more gives satisfied; anything lower gives not satisfied.

Residue Sequence | Category
GTTTGCGGAAACGTGAAC (((..((....))..))) | not satisfied

Evaluate GATTCGGGAAACTGAATC (((((.(....).))))) : Tm at minimum 50 °C?
not satisfied

Evaluate GTACATGGAAACATGCAC ((.((((....)))).)) : Tm at minimum 50 °C?
not satisfied

Evaluate GATCACTGTGGTGATC ((((((....)))))) : Tm at minimum 50 °C?
satisfied

Evaluate GCGTACCGAAAGGTTCGC (((.(((....))).))) : Tm at minimum 50 °C?
satisfied

Evaluate GGTGAAGGAAACTTTACC (((.(((....))).))) : Tm at minimum 50 °C?
not satisfied

Evaluate GTTTGCGAAAGCATAAAC ((((((....)))..))) : Tm at minimum 50 °C?
not satisfied

Evaluate GATCCGGTTGCGGATC ((((((....)))))) : Tm at minimum 50 °C?
satisfied

Evaluate GCTGGCCGAAAGGCGAGC (((.(((....))).))) : Tm at minimum 50 °C?
satisfied
